The reported numbers originate from patent US8633182B2.

System: human GPR40 receptor (Homo sapiens)
Sequence (O14842 whole entry): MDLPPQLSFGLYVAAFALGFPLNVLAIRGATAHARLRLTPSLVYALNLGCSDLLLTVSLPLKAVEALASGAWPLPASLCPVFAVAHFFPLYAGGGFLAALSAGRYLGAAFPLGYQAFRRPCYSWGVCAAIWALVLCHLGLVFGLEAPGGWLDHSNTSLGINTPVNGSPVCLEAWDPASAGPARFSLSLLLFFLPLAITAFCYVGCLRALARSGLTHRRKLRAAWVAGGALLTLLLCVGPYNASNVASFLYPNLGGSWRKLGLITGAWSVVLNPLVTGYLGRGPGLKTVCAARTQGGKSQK
Test Description: IP1 accumulation measurements using the IPOne assay system in 1321N1 cells stably expressing human GPR40 receptor
Recorded Conditions: IP1 accumulation (HTRF), 1321N1 cells stably expressing human GPR40, 1 hour stimulation at 37° C.
pEC50: −log10 of the molar value.
Quantity Measured: pEC50

INSERT INTO measurements (compound, system, observed_value) VALUES
  ('O=C(O)[C@H]1C[C@@H]1c1ccc(O[C@@H]2CCc3c2cccc3C(F)(F)F)cc1', 'human GPR40 receptor (Homo sapiens)', 7.89),
  ('Cc1cc(OCCC(C)(C)O)cc(C)c1-c1c(C#N)ccc2c1CC[C@H]2Oc1ccc([C@H]2C[C@@H]2C(=O)O)cc1', 'human GPR40 receptor (Homo sapiens)', 8.10),
  ('Cc1cc(OCCCCS(C)(=O)=O)cc(C)c1-c1ccc(F)c2c1CC[C@H]2Oc1ccc([C@H]2C[C@@H]2C(=O)O)cc1', 'human GPR40 receptor (Homo sapiens)', 8.22),
  ('Cc1cc(OCCCS(C)(=O)=O)cc(C)c1-c1ccc(F)c2c1CC[C@H]2Oc1ccc(C2CC2C(=O)O)cc1 (some centres unmarked)', 'human GPR40 receptor (Homo sapiens)', 7.89),
  ('O=C(O)[C@H]1C[C@@H]1c1ccc(O[C@@H]2CCc3c(-c4cccc5ncccc45)ccc(F)c32)cc1', 'human GPR40 receptor (Homo sapiens)', 8.22),
  ('Cc1cc(O[C@@H]2CCN(S(C)(=O)=O)C2)cc(C)c1-c1ccc(F)c2c1CC[C@H]2Oc1ccc([C@H]2C[C@@H]2C(=O)O)cc1', 'human GPR40 receptor (Homo sapiens)', 7.89),
  ('O=C(O)C1CC1c1ccc(O[C@@H]2CCc3c2cccc3C(F)(F)F)cc1 (stereo in doubt)', 'human GPR40 receptor (Homo sapiens)', 7.82),
  ('Cc1cc(OCC(C)(C)S(C)(=O)=O)cc(C)c1-c1ccc(F)c2c1CC[C@H]2Oc1ccc([C@H]2C[C@@H]2C(=O)O)cc1', 'human GPR40 receptor (Homo sapiens)', 8.10),
  ('Cc1cc(OC[C@@H](C)CS(C)(=O)=O)cc(C)c1-c1ccc(F)c2c1CC[C@H]2Oc1ccc([C@H]2C[C@@H]2C(=O)O)cc1', 'human GPR40 receptor (Homo sapiens)', 8.15),
  ('COc1cccnc1-c1ccc(F)c2c1CC[C@H]2Oc1ccc([C@H]2C[C@@H]2C(=O)O)cc1', 'human GPR40 receptor (Homo sapiens)', 6.24),
  ('Cc1cc(O[C@H]2CCN(S(C)(=O)=O)C2)cc(C)c1-c1ccc(F)c2c1CC[C@H]2Oc1ccc([C@H]2C[C@@H]2C(=O)O)cc1', 'human GPR40 receptor (Homo sapiens)', 7.74),
  ('Cc1cc(OCCCS(C)(=O)=O)cc(C)c1-c1ccc(F)c2c1CC[C@H]2Oc1ccc([C@@H]2C[C@H]2C(=O)O)cc1', 'human GPR40 receptor (Homo sapiens)', 6.48),
  ('Cc1cc(-c2nnn(CC(C)(C)O)n2)cc(C)c1-c1ccc(F)c2c1CC[C@H]2Oc1ccc([C@H]2C[C@@H]2C(=O)O)cc1', 'human GPR40 receptor (Homo sapiens)', 8.52),
  ('O=C(O)C1CC1c1ccc(O[C@@H]2CCc3cc(C(F)(F)F)ccc32)cc1 (stereo in doubt)', 'human GPR40 receptor (Homo sapiens)', 7.44),
  ('N#Cc1sccc1-c1ccc(F)c2c1CC[C@H]2Oc1ccc([C@H]2C[C@@H]2C(=O)O)cc1', 'human GPR40 receptor (Homo sapiens)', 6.72),
  ('Cc1cc(OCC2CCS(=O)(=O)CC2)cc(C)c1-c1ccc(F)c2c1CC[C@H]2Oc1ccc([C@H]2C[C@@H]2C(=O)O)cc1', 'human GPR40 receptor (Homo sapiens)', 8.15),
  ('Cn1ncc2cccc(-c3ccc(F)c4c3CC[C@H]4Oc3ccc([C@H]4C[C@@H]4C(=O)O)cc3)c21', 'human GPR40 receptor (Homo sapiens)', 8.70);
